Recorded The volume of water required for dissolution of 1 g of the substance at 25° C. values for a group of compounds are listed next.
- protocol_summary: Water solubility test at 25° C. per 1 gram of compound (European Pharmacopoeia 10.0 / Polish Pharmacopoeia XII)
- condition_summary: 1 g of compound, maximum volume of water used 100 mL
Marks after values point to notes of the source that are not given here.
recorded_endpoint: The volume of water required for dissolution of 1 g of the substance at 25° C.

| compound | assay_value |
| --- | --- |
| C[C@H](C(=O)NCc1ccccc1)N1CCCC1=O | 25 mL |
| C[C@@H](C(=O)NCc1ccccc1)N1C(=O)CCC1=O [(2S)-1, reference compound] | >100^c mL |
| CC(C(=O)NCc1ccccc1)N1CCCC1=O (stereo not drawn) | 25 mL |
